PROTOCOL DETAILS: Ex vivo biodistribution of 177Lu-labeled ligands in PC-3 tumor-bearing mice
ASSAY CONTEXT: mouse, liver, intravenous, 4 h pi, n = 5; read-out: Liver uptake
The following compounds are listed with their measured tissue uptake at 4 h values.
Record the value in %ID/g, omitting the unit from your answer.

COMPOUND: CC(C)C[C@@H](CN1CC(F)(F)C[C@H]1C(N)=O)NC(=O)[C@H](Cc1c[nH]cn1)NC(=O)CN(C)C(=O)[C@@H](NC(=O)[C@H](C)NC(=O)[C@H](Cc1c[nH]c2ccccc12)NC(=O)[C@H](CCC(N)=O)NC(=O)[C@@H](Cc1ccccc1)NC(=O)CN1CCC(NC(=O)CN2CCN(CC(=O)O)CCN(CC(=O)O)CCN(CC(=O)O)CC2)CC1)C(C)C [[^177Lu]Lu-LW02080, metal not drawn]
RECORDED RESULT: 0.2

Input: Can you look up the measured tissue uptake at 4 h of CC(C)C[C@H](NC(=O)[C@H](Cc1cnc[nH]1)N(C)C(=O)CNC(=O)[C@@H](NC(=O)[C@H](C)NC(=O)[C@H](Cc1c[nH]c2ccccc12)NC(=O)[C@H](CCC(N)=O)NC(=O)[C@@H](Cc1ccccc1)NC(=O)CN1CCC(NC(=O)CN2CCN(CC(=O)O)CCN(CC(=O)O)CCN(CC(=O)O)CC2)CC1)C(C)(C)C)C(=O)N1CC(F)(F)C[C@H]1C(N)=O [[^177Lu]Lu-LW02060, metal not drawn] for me?
Output: 0.27

----------
PROTOCOL DETAILS: Ex vivo biodistribution of 68Ga-labeled tracers in PC-3 tumor-bearing mice
ASSAY CONTEXT: male, NOD.Cg-Rag1^tm1Mom Il2rg^tm1Wjl/SzJ (NRG), mouse, tumor/muscle, iv, total radioactivity, 1 h pi, n = 4; read-out: Tumor/muscle uptake ratio
QUANTITY NAME: tissue to tissue ratio at 1 h
Please reply with the number alone, leaving off any unit.

MOLECULE: CC(C)C[C@H](NC(=O)[C@H](Cc1cnc[nH]1)N(C)C(=O)CNC(=O)[C@@H](NC(=O)[C@H](C)NC(=O)[C@H](Cc1c[nH]c2ccccc12)NC(=O)[C@H](CCC(N)=O)NC(=O)[C@@H](Cc1ccccc1)NC(=O)CN1CCC(NC(=O)CN2CCN(CC(=O)O)CCN(CC(=O)O)CCN(CC(=O)O)CC2)CC1)C(C)(C)C)C(=O)N1CC(F)(F)C[C@H]1C(N)=O [[^68Ga]Ga-LW02060, metal not drawn]
QUANTITY NAME: tissue to tissue ratio at 1 h
RECORDED RESULT: 141

Now for another entry.
Input: Given the entry CC(C)C[C@@H](CN1CC(F)(F)C[C@H]1C(N)=O)NC(=O)[C@H](Cc1c[nH]cn1)NC(=O)CN(C)C(=O)[C@@H](NC(=O)[C@H](C)NC(=O)[C@H](Cc1c[nH]c2ccccc12)NC(=O)[C@H](CCC(N)=O)NC(=O)[C@@H](Cc1ccccc1)NC(=O)CN1CCC(NC(=O)CN2CCN(CC(=O)O)CCN(CC(=O)O)CCN(CC(=O)O)CC2)CC1)C(C)C [[^68Ga]Ga-LW02080, metal not drawn] , report its measured tissue to tissue ratio at 1 h.
Output: 117

----------
PROTOCOL DETAILS: Ex vivo biodistribution of 177Lu-labeled ligands in PC-3 tumor-bearing mice
ASSAY CONTEXT: mouse, muscle, intravenous, 4 h pi, n = 5; read-out: Muscle uptake
QUANTITY NAME: tissue uptake at 4 h (%ID/g)
Field format: number, assumed %ID/g, no unit text.

MOLECULE: CC(C)C[C@H](NC(=O)[C@H](Cc1cnc[nH]1)N(C)C(=O)CNC(=O)[C@@H](NC(=O)[C@H](C)NC(=O)[C@H](Cc1c[nH]c2ccccc12)NC(=O)[C@H](CCC(N)=O)NC(=O)[C@@H](Cc1ccccc1)NC(=O)CN1CCC(NC(=O)CN2CCN(CC(=O)O)CCN(CC(=O)O)CCN(CC(=O)O)CC2)CC1)C(C)(C)C)C(=O)N1CC(F)(F)C[C@H]1C(N)=O [[^177Lu]Lu-LW02060, metal not drawn]
tissue uptake at 4 h / %ID/g: 0.05

Input: Which value of tissue uptake at 4 h has been reported for CC(C)C[C@@H](CN1CC(F)(F)C[C@H]1C(N)=O)NC(=O)[C@H](Cc1c[nH]cn1)NC(=O)CN(C)C(=O)[C@@H](NC(=O)[C@H](C)NC(=O)[C@H](Cc1c[nH]c2ccccc12)NC(=O)[C@H](CCC(N)=O)NC(=O)[C@@H](Cc1ccccc1)NC(=O)CN1CCC(NC(=O)CN2CCN(CC(=O)O)CCN(CC(=O)O)CCN(CC(=O)O)CC2)CC1)C(C)C [[^177Lu]Lu-LW02080, metal not drawn] in the records?
Output: 0.01
